biological target: GRB10 (Homo sapiens, UniProt Q13322); construct: the DNA-tagged SH2 domain concentrations used in this study were <0.1 nM; made in house; host or cells: HEK293 (transient transfection; unpurified extract); experiment: biochemical; type: binding; details: primary screen, 10 μM; read-out: percent of DMSO vehicle control
Sequence (Q13322 493-574 limits assumed): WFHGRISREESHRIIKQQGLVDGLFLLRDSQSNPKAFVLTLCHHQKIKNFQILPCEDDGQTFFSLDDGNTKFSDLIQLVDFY
Please provide measured remaining activity at 10 µM for the entries that follow.
Record the value in %, omitting the unit from your answer.

Q: Record request: remaining activity at 10 µM value, item C/C(=C\C(=O)N[C@H](C(=O)N1CCC[C@H]1C(=O)N(c1ccccc1)c1ccc(I)cc1)C(C)(C)C)c1ccc(OP(=O)(O)O)cc1
Ans: 14.6

Q: Record request: remaining activity at 10 µM value, item CC(C)(C)[C@H](NC(=O)/C=C/c1ccc(OP(=O)(O)O)cc1)C(=O)N1CCC[C@H]1C(=O)N(c1ccccc1)c1ccc(I)cc1
Ans: 58.8

Q: Record request: remaining activity at 10 µM value, item O=C(CCl)Nc1cccc(CNC(=O)[C@H](Cc2ccc(OP(=O)(O)O)cc2)NC(=O)Cc2ccc(F)cc2)c1
Ans: 61.8

Q: Record request: remaining activity at 10 µM value, item O=C(COc1ccc2cc(C(=O)Nc3ccccc3)ccc2c1)NCc1ccc(OP(=O)(O)O)c(OP(=O)(O)O)c1
Ans: 78.1

###

molecular target: SHIP1 (Homo sapiens); construct: made in house; host or cells: HEK293 (transient transfection), unpurified extract; test: biochemical; format: binding; details: primary screen, 10 μM
Sequence (Q92835 whole entry): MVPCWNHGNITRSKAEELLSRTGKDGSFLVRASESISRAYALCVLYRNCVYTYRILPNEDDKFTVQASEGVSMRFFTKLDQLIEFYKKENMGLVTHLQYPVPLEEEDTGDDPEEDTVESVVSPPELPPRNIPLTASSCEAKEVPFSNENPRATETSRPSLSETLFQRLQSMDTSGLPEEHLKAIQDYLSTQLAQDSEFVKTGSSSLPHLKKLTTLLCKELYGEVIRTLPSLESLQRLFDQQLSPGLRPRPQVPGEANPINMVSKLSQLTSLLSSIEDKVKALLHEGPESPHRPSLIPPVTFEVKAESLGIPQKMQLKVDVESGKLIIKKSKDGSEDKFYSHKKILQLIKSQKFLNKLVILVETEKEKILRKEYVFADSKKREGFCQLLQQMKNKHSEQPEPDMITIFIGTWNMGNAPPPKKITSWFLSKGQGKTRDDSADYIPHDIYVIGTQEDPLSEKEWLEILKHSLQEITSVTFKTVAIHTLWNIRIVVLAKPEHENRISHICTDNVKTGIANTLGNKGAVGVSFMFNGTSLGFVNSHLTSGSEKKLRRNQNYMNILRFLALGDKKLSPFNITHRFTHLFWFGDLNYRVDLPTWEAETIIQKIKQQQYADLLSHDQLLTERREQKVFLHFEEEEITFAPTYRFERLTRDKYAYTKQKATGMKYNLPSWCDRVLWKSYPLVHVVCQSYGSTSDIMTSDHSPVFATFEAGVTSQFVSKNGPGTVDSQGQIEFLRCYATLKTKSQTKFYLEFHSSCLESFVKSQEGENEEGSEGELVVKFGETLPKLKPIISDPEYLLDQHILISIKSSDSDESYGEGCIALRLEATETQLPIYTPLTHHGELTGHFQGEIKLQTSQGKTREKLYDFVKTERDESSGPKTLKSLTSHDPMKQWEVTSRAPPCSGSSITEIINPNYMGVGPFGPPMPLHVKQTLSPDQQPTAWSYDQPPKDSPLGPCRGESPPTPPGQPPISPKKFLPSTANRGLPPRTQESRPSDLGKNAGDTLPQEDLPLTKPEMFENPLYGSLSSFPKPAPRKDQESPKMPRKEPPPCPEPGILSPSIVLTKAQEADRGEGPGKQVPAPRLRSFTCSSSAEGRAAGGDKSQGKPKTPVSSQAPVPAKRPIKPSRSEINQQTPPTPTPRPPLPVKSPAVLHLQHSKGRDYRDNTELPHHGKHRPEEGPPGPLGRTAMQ
Non-standard residues stand in square brackets, D forms with d. Residues, ends and D or L forms follow the SMILES beside them. *: point of attachment. pY = N[C@@H](Cc1ccc(OP(=O)(O)O)cc1)C(=O)O; Caffeoyl = O=C(/C=C/c1ccc(O)c(O)c1)*
recorded endpoint: percent of DMSO vehicle control (%)
Record the value in %, omitting the unit from your answer.

Q: Record request: percent of DMSO vehicle control value, item CC(=O)N1CC[C@H]2CC[C@@H](C(=O)N[C@@H](CCC(N)=O)C(=O)NC(c3ccccc3)c3ccccc3)N2C(=O)[C@@H](NC(=O)c2cc3cc(C(F)(F)P(=O)(O)O)ccc3[nH]2)C1
Ans: 101.8

Q: Record request: percent of DMSO vehicle control value, item NC(=O)CC[C@H](NC(=O)[C@@H]1CC[C@@H]2CCN(C(=O)CCCCCC#Cc3cccc4c3CN(C3CCC(=O)NC3=O)C4=O)C[C@H](NC(=O)c3cc4cc(C(F)(F)P(=O)(O)O)ccc4[nH]3)C(=O)N21)C(=O)NC(c1ccccc1)c1ccccc1 (stereo partly drawn)
Ans: 44.1

Q: Record request: percent of DMSO vehicle control value, item CC(=O)N[C@@H](Cc1ccc(CP(=O)(O)O)cc1)C(=O)NC1(C(=O)N[C@@H](CC(N)=O)C(=O)NCCCc2c(O)ccc3ccccc23)CCCCC1
Ans: 77.7

Q: Record request: percent of DMSO vehicle control value, item C/C(=C\C(=O)N[C@H](C(=O)N1CCC[C@H]1C(=O)N(c1ccccc1)c1ccc(I)cc1)C(C)(C)C)c1ccc(OP(=O)(O)O)cc1
Ans: 4.4

Q: Record request: percent of DMSO vehicle control value, item O=C(COc1ccc2cc(C(=O)Nc3ccccc3)ccc2c1)NCc1ccc(OP(=O)(O)O)c(OP(=O)(O)O)c1
Ans: 61.1

Q: Record request: percent of DMSO vehicle control value, item CC(C)(C)[C@H](NC(=O)/C=C/c1ccc(OP(=O)(O)O)cc1)C(=O)N1CCC[C@H]1C(=O)N(c1ccccc1)c1ccc(I)cc1
Ans: 53.7

Q: Record request: percent of DMSO vehicle control value, item CC[C@H](C)[C@H](NC(=O)[C@H](CCC(=O)O)NC(=O)[C@H](CCC(=O)O)NC(=O)[C@H](Cc1ccc(OP(=O)(O)O)cc1)NC(C)=O)C(=O)N[C@@H](CCC(=O)O)C(N)=O [Ac-pYEEIE-NH2] (Ac-[pY]EEIE-NH2)
Ans: 79.4

Q: Record request: percent of DMSO vehicle control value, item O=C(CCl)Nc1cccc(CNC(=O)[C@H](Cc2ccc(OP(=O)(O)O)cc2)NC(=O)Cc2ccc(F)cc2)c1
Ans: 19.1

Q: Record request: percent of DMSO vehicle control value, item CC[C@H](C)[C@H](NC(=O)[C@H](CCC(=O)O)NC(=O)[C@H](CCC(=O)O)NC(=O)[C@H](Cc1ccc(OP(=O)(O)O)cc1)NC(=O)/C=C/c1ccc(O)c(O)c1)C(=O)N[C@@H](CCC(=O)O)C(=O)O [Caffeic acid-pYEEIE] (Caffeoyl-[pY]EEIE-OH)
Ans: 9.0

###

molecular target: BLK (Homo sapiens); construct: the DNA-tagged SH2 domain concentrations used in this study were <0.1 nM; made in house; host or cells: HEK293 (transient transfection; unpurified extract); test: biochemical; format: binding; details: read-out: percent of DMSO vehicle control
Sequence (P51451 124-220 limits assumed): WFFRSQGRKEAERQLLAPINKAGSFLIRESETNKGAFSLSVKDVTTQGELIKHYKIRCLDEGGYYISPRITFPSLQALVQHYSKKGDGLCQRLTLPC
Non-standard residues stand in square brackets, D forms with d. Residues, ends and D or L forms follow the SMILES beside them. *: point of attachment. pY = N[C@@H](Cc1ccc(OP(=O)(O)O)cc1)C(=O)O; Caffeoyl = O=C(/C=C/c1ccc(O)c(O)c1)*
Please provide measured remaining activity at 10 µM for the entries that follow.
Record the value in %, omitting the unit from your answer.

Q: Request body: readout remaining activity at 10 µM, system BLK (Homo sapiens), query CC[C@H](C)[C@H](NC(=O)[C@H](CCC(=O)O)NC(=O)[C@H](CCC(=O)O)NC(=O)[C@H](Cc1ccc(OP(=O)(O)O)cc1)NC(=O)/C=C/c1ccc(O)c(O)c1)C(=O)N[C@@H](CCC(=O)O)C(=O)O [Caffeic acid-pYEEIE] (Caffeoyl-[pY]EEIE-OH) . Return the value.
Ans: 0.1

Q: Request body: readout remaining activity at 10 µM, system BLK (Homo sapiens), query CC(=O)N1CC[C@H]2CC[C@@H](C(=O)N[C@@H](CCC(N)=O)C(=O)NC(c3ccccc3)c3ccccc3)N2C(=O)[C@@H](NC(=O)c2cc3cc(C(F)(F)P(=O)(O)O)ccc3[nH]2)C1 . Return the value.
Ans: 105

Q: Request body: readout remaining activity at 10 µM, system BLK (Homo sapiens), query CC(=O)N[C@@H](Cc1ccc(CP(=O)(O)O)cc1)C(=O)NC1(C(=O)N[C@@H](CC(N)=O)C(=O)NCCCc2c(O)ccc3ccccc23)CCCCC1 . Return the value.
Ans: 42.1

Q: Request body: readout remaining activity at 10 µM, system BLK (Homo sapiens), query NC(=O)CC[C@H](NC(=O)[C@@H]1CC[C@@H]2CCN(C(=O)CCCCCC#Cc3cccc4c3CN(C3CCC(=O)NC3=O)C4=O)C[C@H](NC(=O)c3cc4cc(C(F)(F)P(=O)(O)O)ccc4[nH]3)C(=O)N21)C(=O)NC(c1ccccc1)c1ccccc1 (stereo partly shown) . Return the value.
Ans: 70.6

###

Please provide measured remaining activity at 10 µM for the entries that follow.
Target: SHC2 (Homo sapiens, UniProt P98077)
Construct: made in house; host or cells: HEK293 (transient transfection), unpurified extract
Sequence (P98077 1-582): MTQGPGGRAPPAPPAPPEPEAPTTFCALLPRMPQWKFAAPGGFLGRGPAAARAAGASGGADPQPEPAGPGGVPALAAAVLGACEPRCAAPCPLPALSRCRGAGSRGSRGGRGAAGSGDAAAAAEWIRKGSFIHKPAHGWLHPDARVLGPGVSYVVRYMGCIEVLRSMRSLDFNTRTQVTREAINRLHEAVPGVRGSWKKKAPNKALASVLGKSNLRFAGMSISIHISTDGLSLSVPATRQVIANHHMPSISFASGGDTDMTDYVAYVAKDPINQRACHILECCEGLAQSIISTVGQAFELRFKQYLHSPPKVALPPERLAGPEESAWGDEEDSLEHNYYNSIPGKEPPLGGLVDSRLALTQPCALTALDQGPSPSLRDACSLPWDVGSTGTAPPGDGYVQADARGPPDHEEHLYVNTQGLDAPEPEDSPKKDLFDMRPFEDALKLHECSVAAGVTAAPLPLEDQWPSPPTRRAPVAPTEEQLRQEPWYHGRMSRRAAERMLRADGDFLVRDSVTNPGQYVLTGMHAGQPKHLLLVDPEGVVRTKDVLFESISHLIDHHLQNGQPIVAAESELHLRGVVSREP
Assay: biochemical
Assay type: binding
Settings: primary screen, 10 μM; read-out: percent of DMSO vehicle control
Answer format reminder: number followed by unit.

Q: Record request: remaining activity at 10 µM value, item C/C(=C\C(=O)N[C@H](C(=O)N1CCC[C@H]1C(=O)N(c1ccccc1)c1ccc(I)cc1)C(C)(C)C)c1ccc(OP(=O)(O)O)cc1
Ans: 47.3%

Q: Record request: remaining activity at 10 µM value, item O=C(COc1ccc2cc(C(=O)Nc3ccccc3)ccc2c1)NCc1ccc(OP(=O)(O)O)c(OP(=O)(O)O)c1
Ans: 83.4%

Q: Record request: remaining activity at 10 µM value, item CC(C)(C)[C@H](NC(=O)/C=C/c1ccc(OP(=O)(O)O)cc1)C(=O)N1CCC[C@H]1C(=O)N(c1ccccc1)c1ccc(I)cc1
Ans: 85.2%

Q: Record request: remaining activity at 10 µM value, item O=C(CCl)Nc1cccc(CNC(=O)[C@H](Cc2ccc(OP(=O)(O)O)cc2)NC(=O)Cc2ccc(F)cc2)c1
Ans: 82.9%
